Values from ChEMBL document CHEMBL1926569

# System: Aspergillus niger
# run-description: Ratio of bifonazole to compound for Aspergillus niger ATCC 6275
# Assay type: functional
endpoint: Ratio
Give bare numbers.

These recorded examples may help you get a feel for the data.
CCNc1nc(C)c(C(=O)/C=C/c2ccc(F)cc2)s1    10
CCNc1nc(C)c(C(=O)/C=C/c2ccc(Cl)cc2)s1    10
CCNc1nc(C)c(C(=O)/C=C/c2ccccc2)s1    10
CCNc1nc(C)c(C(=O)/C=C/c2ccc(OC)cc2)s1    10
CNc1nc(C)c(C(=O)/C=C/c2cccc(Br)c2)s1    10
CCNc1nc(C)c(C(=O)/C=C/c2ccc([N+](=O)[O-])cc2)s1    10
CCNc1nc(C)c(C(=O)/C=C/c2cccc([N+](=O)[O-])c2)s1    10
CNc1nc(C)c(C(=O)/C=C/c2cccc(F)c2)s1    10

For each listed entry, give its Ratio.
1. CCNc1nc(C)c(C(=O)/C=C/c2cccc(F)c2)s1
2. CCNc1nc(C)c(C(=O)/C=C/c2ccccc2OC)s1

Result:
[10, 10]

Take each entry in turn and give its Ratio.
1. CNc1nc(C)c(C(=O)/C=C/c2cccc(Cl)c2Cl)s1
2. CCNc1nc(C)c(C(=O)/C=C/c2ccccc2Cl)s1

Result:
1: 10; 2: 10

====

# Test system: Pseudomonas aeruginosa
# run-description: Antibacterial activity against Pseudomonas aeruginosa ATCC 27853 incubated for 24 hrs followed by serial sub-cultivation for 24 hrs by microdilution
# Type: functional
# condition-parameters: ATCC 27853, 24 h
endpoint: log10 MBC (log10 of the value in µM)
Hello, just confirming the data are log10 of MBC with units of µM.

For orientation, consider the following solved cases.
CCNc1nc(C)c(C(=O)/C=C/c2cccc(Br)c2)s1    1.85
CNc1nc(C)c(C(=O)/C=C/c2ccc(F)cc2)s1    2.05
CNc1nc(C)c(C(=O)/C=C/c2cccc(F)c2)s1    1.86
CCNc1nc(C)c(C(=O)/C=C/c2ccccc2Cl)s1    1.79
CCNc1nc(C)c(C(=O)/C=C/c2cccc(Cl)c2)s1    1.91

Your task in this section: give log10 MBC for each listed record.
1. CNc1nc(C)c(C(=O)/C=C/c2cccc(Cl)c2Cl)s1
2. CCNc1nc(C)c(C(=O)/C=C/c2ccc(Cl)cc2)s1
3. CCNc1nc(C)c(C(=O)/C=C/c2ccccc2)s1
4. CC1(C)S[C@@H]2[C@H](NC(=O)[C@H](N)c3ccccc3)C(=O)N2[C@H]1C(=O)O [AMPICILLIN]
5. CNc1nc(C)c(C(=O)/C=C/c2cccc(C)c2)s1
6. CCNc1nc(C)c(C(=O)/C=C/c2ccc(F)cc2)s1

Result:
[1.96, 1.99, 1.87, 3.09, 1.96, 1.84]

====

# System: Pseudomonas aeruginosa
# run-description: Antibacterial activity against Pseudomonas aeruginosa ATCC 27853 incubated for 24 hrs followed by serial sub-cultivation for 24 hrs by microdilution
# Assay type: functional
# condition-parameters: ATCC 27853, 24 h
endpoint: MBC (µM)
Give bare numbers, in µM.

Worked examples follow.
CCNc1nc(C)c(C(=O)/C=C/c2ccccc2OC)s1    99.3
CCNc1nc(C)c(C(=O)/C=C/c2ccc([N+](=O)[O-])cc2)s1    63.1
CNc1nc(C)c(C(=O)/C=C/c2cccc(Br)c2)s1    74.2
CCCNc1nc(C)c(C(=O)/C=C/c2ccccc2)s1    90
CCNc1nc(C)c(C(=O)/C=C/c2cccc(F)c2)s1    68.9

# per-item lookup of MBC; items listed below
1. CCNc1nc(C)c(C(=O)/C=C/c2cccc([N+](=O)[O-])c2)s1
2. CCNc1nc(C)c(C(=O)/C=C/c2ccc(OC)cc2)s1
3. CN[C@@H]1[C@H](O[C@H]2[C@H](O[C@H]3[C@H](O)[C@@H](O)[C@H](N=C(N)N)[C@@H](O)[C@@H]3N=C(N)N)O[C@@H](C)[C@]2(O)C=O)O[C@@H](CO)[C@H](O)[C@H]1O

Result:
78.9
82.8
344

====

# Test system: Penicillium ochrochloron
# run-description: Antifungal activity against Penicillium ochrochloron ATCC 9112 incubated for 72 hrs followed by serial sub-cultivation for 72 hrs by serial dilution technique
# Type: functional
# condition-parameters: ATCC 9112, 72 h
endpoint: MFC (µM)
Answers are plain numbers, in µM.

CCNc1nc(C)c(C(=O)/C=C/c2ccc(F)cc2)s1    86.2
CCCNc1nc(C)c(C(=O)/C=C/c2ccccc2)s1    70
CNc1nc(C)c(C(=O)/C=C/c2cccc(Cl)c2Cl)s1    61.2
CCNc1nc(C)c(C(=O)/C=C/c2ccccc2Cl)s1    65.3
c1ccc(-c2ccc(C(c3ccccc3)n3ccnc3)cc2)cc1 (centres undefined)    640
CNc1nc(C)c(C(=O)/C=C/c2cccc(F)c2)s1    72.5

For each of the compounds below, note its MFC.
1. CC(=O)N1CCN(c2ccc(OCC3COC(Cn4ccnc4)(c4ccc(Cl)cc4Cl)O3)cc2)CC1 (centres undefined)
2. CNc1nc(C)c(C(=O)/C=C/c2cccc(C)c2)s1
3. CCNc1nc(C)c(C(=O)/C=C/c2cccc([N+](=O)[O-])c2)s1
4. CNc1nc(C)c(C(=O)/C=C/c2ccc(F)cc2)s1

Result:
1. 3800
2. 73.5
3. 78.8
4. 72.5

Give me MFC for each of these compounds, listed below.
1. CCNc1nc(C)c(C(=O)/C=C/c2cccc(Cl)c2)s1
2. CCNc1nc(C)c(C(=O)/C=C/c2cccc(F)c2)s1
3. CCNc1nc(C)c(C(=O)/C=C/c2ccccc2)s1
4. CCNc1nc(C)c(C(=O)/C=C/c2ccc([N+](=O)[O-])cc2)s1
5. CCNc1nc(C)c(C(=O)/C=C/c2ccccc2OC)s1
6. CCNc1nc(C)c(C(=O)/C=C/c2ccc(Cl)cc2)s1
7. CNc1nc(C)c(C(=O)/C=C/c2cccc(Br)c2)s1

Result:
1: 81.7; 2: 68.9; 3: 73.5; 4: 78.8; 5: 82.8; 6: 81.7; 7: 59.3

For every item below, please supply its MFC.
1. CCNc1nc(C)c(C(=O)/C=C/c2cccc(Br)c2)s1
2. CCNc1nc(C)c(C(=O)/C=C/c2ccc(OC)cc2)s1

Result:
[58.2, 82.8]

====

# System: Enterococcus faecalis
# run-description: Antibacterial activity against Enterococcus faecalis isolated from human after 24 hrs by microdilution method
# Type: functional
Mark t only for MIC values smaller than 60 µM; exact matches and larger values are f.

Sample answers from the record:
CNc1nc(C)c(C(=O)/C=C/c2ccc(F)cc2)s1    t
CCNc1nc(C)c(C(=O)/C=C/c2cccc([N+](=O)[O-])c2)s1    t

Query: Confirm or reject: MIC of CN[C@@H]1[C@H](O[C@H]2[C@H](O[C@H]3[C@H](O)[C@@H](O)[C@H](N=C(N)N)[C@@H](O)[C@@H]3N=C(N)N)O[C@@H](C)[C@]2(O)C=O)O[C@@H](CO)[C@H](O)[C@H]1O [STREPTOMYCIN] lies strictly below 60 µM
Result: t

Query: A record lists CNc1nc(C)c(C(=O)/C=C/c2cccc(Cl)c2Cl)s1 . Is its MIC below 60 µM?
Result: f

Query: Dear reviewer, please state whether CNc1nc(C)c(C(=O)/C=C/c2cccc(F)c2)s1 has MIC strictly beneath 60 µM.
Result: t

====

# Test system: Staphylococcus aureus
# run-description: Antibacterial activity against Staphylococcus aureus ATCC 6538 incubated for 24 hrs followed by serial sub-cultivation for 24 hrs by microdilution method
# Type: functional
# condition-parameters: ATCC 6538, 24 h
endpoint: MBC

Example entries begin here.
CCNc1nc(C)c(C(=O)/C=C/c2cccc([N+](=O)[O-])c2)s1    94.6 µM
CCNc1nc(C)c(C(=O)/C=C/c2ccc(F)cc2)s1    68.9 µM
CC1(C)S[C@@H]2[C@H](NC(=O)[C@H](N)c3ccccc3)C(=O)N2[C@H]1C(=O)O    372 µM
CCNc1nc(C)c(C(=O)/C=C/c2ccc([N+](=O)[O-])cc2)s1    94.6 µM

Quick one: give me MBC for each item below, same order please.
1. CN[C@@H]1[C@H](O[C@H]2[C@H](O[C@H]3[C@H](O)[C@@H](O)[C@H](N=C(N)N)[C@@H](O)[C@@H]3N=C(N)N)O[C@@H](C)[C@]2(O)C=O)O[C@@H](CO)[C@H](O)[C@H]1O
2. CCNc1nc(C)c(C(=O)/C=C/c2ccc(OC)cc2)s1
3. CCCNc1nc(C)c(C(=O)/C=C/c2ccccc2)s1
4. CNc1nc(C)c(C(=O)/C=C/c2cccc(Cl)c2Cl)s1
5. CNc1nc(C)c(C(=O)/C=C/c2cccc(F)c2)s1

Result:
1: 344 µM; 2: 99.3 µM; 3: 105 µM; 4: 91.7 µM; 5: 90.6 µM
